- TEST_SYSTEM: ROCK1 (Homo sapiens, UniProt Q13464)
- Construct: purchased Upstate/Chemicon 14-601
- Sequence (Q13464 17-535 limits assumed): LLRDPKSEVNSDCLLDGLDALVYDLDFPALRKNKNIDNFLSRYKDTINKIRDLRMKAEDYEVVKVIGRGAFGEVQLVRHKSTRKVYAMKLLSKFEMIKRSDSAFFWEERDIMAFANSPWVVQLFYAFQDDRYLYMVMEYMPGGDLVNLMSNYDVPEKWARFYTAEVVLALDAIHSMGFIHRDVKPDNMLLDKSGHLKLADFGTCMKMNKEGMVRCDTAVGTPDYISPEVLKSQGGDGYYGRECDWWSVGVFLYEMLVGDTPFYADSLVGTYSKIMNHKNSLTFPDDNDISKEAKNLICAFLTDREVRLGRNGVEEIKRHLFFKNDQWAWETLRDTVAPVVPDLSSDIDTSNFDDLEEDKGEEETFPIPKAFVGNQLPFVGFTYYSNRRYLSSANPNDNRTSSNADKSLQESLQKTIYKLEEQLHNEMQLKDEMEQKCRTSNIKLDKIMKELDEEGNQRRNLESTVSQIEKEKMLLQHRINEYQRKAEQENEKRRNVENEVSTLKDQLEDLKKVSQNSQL
- TEST_DESCRIPTION: Rho kinase inhibition assay (IMAP fluorescence polarization), ROCK1
- Format: biochemical
- ASSAY_SETUP: Avg, 10 μM ATP
Attribute: pKi
Formally, pKi is defined as -log10 of the concentration c, with c in mol/L.

The following compounds have reported results that may help.
FC(F)(F)c1cccc(CN2CC[C@@H](Nc3ccc4[nH]ncc4c3)C2)c1 :: 6.66
c1cc(N[C@@H]2CCN(Cc3ccsc3)C2)c2ccncc2c1 :: 7.41
CS(=O)(=O)Nc1cccc(CN2CC[C@H](Nc3cccc4cnccc34)C2)c1 :: 6.22

Field: next compound
Query: Given the entry CCS(=O)(=O)Nc1cccc(CN2CCC[C@@H](Nc3ccc4[nH]ncc4c3)C2)c1 , report its measured pKi.
Result: 7.08

* * *

- TEST_SYSTEM: Akt3 human enzyme (Homo sapiens)
- Construct: purchased Upstate Chemicon 14-502
- Sequence (Q9Y243 whole entry): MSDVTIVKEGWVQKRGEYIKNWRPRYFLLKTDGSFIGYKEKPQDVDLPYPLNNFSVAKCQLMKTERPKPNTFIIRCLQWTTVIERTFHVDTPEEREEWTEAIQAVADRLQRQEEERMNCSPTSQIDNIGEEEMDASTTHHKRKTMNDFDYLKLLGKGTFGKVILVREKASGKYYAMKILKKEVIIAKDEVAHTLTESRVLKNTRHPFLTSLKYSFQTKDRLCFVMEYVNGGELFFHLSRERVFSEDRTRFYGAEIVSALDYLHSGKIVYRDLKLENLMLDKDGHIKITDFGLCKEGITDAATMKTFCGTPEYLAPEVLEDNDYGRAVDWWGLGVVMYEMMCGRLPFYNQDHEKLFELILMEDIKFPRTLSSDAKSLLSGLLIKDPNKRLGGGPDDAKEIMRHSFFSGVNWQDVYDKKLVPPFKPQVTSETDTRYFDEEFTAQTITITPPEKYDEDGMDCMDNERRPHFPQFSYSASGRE
- TEST_DESCRIPTION: Akt3 inhibition assay (IMAP FP);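 further: kinase reaction run 60 min at room temperature after 30 µM ATP start, phosphorylated substrate captured on IMAP beads and read as fluorescence polarization (mP)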
- Type: biochemical
- ASSAY_SETUP: 30 μM ATP; Ki=IC50/(1+([ATP Challenge]/EC50 ATP)); read-out: Akt3 Ki, Avg
MEASURED_ATTRIBUTE: pKi
Scale: negative log10 of molar concentration, which is what pKi denotes.

Below, each entry is followed by its recorded pKi result.
CSc1cccc(CN2CCC[C@H](Nc3ccc4[nH]ncc4c3)C2)c1 :: 5.23
c1ccc2c(CN3CCC[C@@H](Nc4ccc5[nH]ncc5c4)C3)c[nH]c2c1 :: 6.69
CSc1ccc(CN2CC[C@@H](Nc3cccc4cnccc34)C2)cc1 :: 5.68
CSc1cccc(CN2CCC[C@@H](Nc3ccc4[nH]ncc4c3)C2)c1 :: 5.91
COc1ccc(CN2CC[C@@H](Nc3cccc4cnccc34)C2)cc1 :: 5.71
COc1ccc(CN2CCC[C@H](Nc3ccc4[nH]ncc4c3)C2)cc1 :: 5.14
OCCn1ccc2ccc(CN3CCC[C@@H](Nc4ccc5[nH]ncc5c4)C3)cc21 :: 6.69

Query: pKi of OCCn1ccc2ccc(CN3CC[C@@H](Nc4cccc5cnccc45)C3)cc21 on Akt3 human enzyme (Homo sapiens)?
Result: 6.48

* * *

- TEST_SYSTEM: ROCK2 (Homo sapiens, UniProt O75116)
- Construct: purchased Upstate/Chemicon 14-451
- Sequence (O75116 11-552 limits assumed): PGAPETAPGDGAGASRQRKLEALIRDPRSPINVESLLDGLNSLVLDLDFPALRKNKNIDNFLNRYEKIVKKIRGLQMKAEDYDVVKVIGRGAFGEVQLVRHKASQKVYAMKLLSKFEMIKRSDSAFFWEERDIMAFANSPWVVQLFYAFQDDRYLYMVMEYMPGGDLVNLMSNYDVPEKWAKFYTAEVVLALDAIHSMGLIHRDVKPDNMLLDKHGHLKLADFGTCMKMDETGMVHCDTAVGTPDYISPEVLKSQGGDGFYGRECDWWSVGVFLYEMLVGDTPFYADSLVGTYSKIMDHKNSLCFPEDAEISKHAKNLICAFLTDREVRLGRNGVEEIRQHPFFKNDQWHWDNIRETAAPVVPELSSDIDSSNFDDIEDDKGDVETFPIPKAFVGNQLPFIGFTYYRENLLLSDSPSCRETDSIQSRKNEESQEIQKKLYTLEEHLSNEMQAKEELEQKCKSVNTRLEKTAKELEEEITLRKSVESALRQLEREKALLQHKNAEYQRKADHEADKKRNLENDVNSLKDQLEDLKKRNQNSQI
- TEST_DESCRIPTION: Rho kinase inhibition assay (IMAP fluorescence polarization), ROCK2
- Type: biochemical
- ASSAY_SETUP: 10 μM ATP; read-out: ROCK2 Ki, Avg
Ki strictly under 20 nM means 1; at 20 nM or over means -1.

Look over these answered cases.
Brc1cccc(CN2CCC[C@@H](Nc3ccc4[nH]ncc4c3)C2)c1 :: -1
NC(=O)Cn1ccc2ccc(CN3CCC[C@H](Nc4ccc5[nH]ncc5c4)C3)cc21 :: 1
O=[N+]([O-])c1cc(CN2CC[C@@H](Nc3cccc4cnccc34)C2)cs1 :: -1
OCCOc1cccc(CN2CCC(Nc3ccc4[nH]ncc4c3)CC2)c1 :: -1
CNC(=O)Nc1cccc(CN2CCC[C@@H](Nc3ccc4[nH]ncc4c3)C2)c1 :: -1
Clc1ccc(CN2CCC[C@@H](Nc3ccc4[nH]ncc4c3)C2)cc1 :: 1
CS(=O)(=O)Nc1cccc(CN2CCC[C@H](Nc3cccc4cnccc34)C2)c1 :: -1

Turning now to a further record.
Query: Does the reported Ki of the following compound sit strictly below 20 nM? CCS(=O)(=O)Nc1cc(CN2CCC[C@@H](Nc3ccc4[nH]ncc4c3)C2)ccc1C
Result: 1

* * *

- TEST_SYSTEM: ROCK2 (Homo sapiens, UniProt O75116)
- Construct: purchased Upstate/Chemicon 14-451
- TEST_DESCRIPTION: Rho kinase inhibition assay (IMAP fluorescence polarization), ROCK2
- Type: biochemical
- ASSAY_SETUP: 10 μM ATP; read-out: ROCK2 Ki, Avg
MEASURED_ATTRIBUTE: pKi
Recall that pKi is obtained by taking minus log10 of the concentration measured in molar.

Cc1ccc(CN2CC[C@@H](Nc3ccc4[nH]ncc4c3)C2)cc1OCCO :: 7.91
Clc1ccc(CN2CCC[C@H](Nc3ccc4[nH]ncc4c3)C2)cc1Cl :: 7.82

Query: Data request, read-out pKi, for Cc1ccc(CN2CCC[C@@H](Nc3ccc4[nH]ncc4c3)C2)cc1OCC(N)=O
Result: 8.13

Query: pKi; subject: CCOC(=O)COc1cccc(CN2CCC[C@H](Nc3ccc4[nH]ncc4c3)C2)c1
Result: 8.23

* * *

- TEST_SYSTEM: ROCK2 (Homo sapiens, UniProt O75116)
- Construct: purchased Upstate/Chemicon 14-451
- TEST_DESCRIPTION: Rho kinase inhibition assay (IMAP fluorescence polarization), ROCK2
- Assay type: biochemical
- ASSAY_SETUP: average Ki; read-out: ROCK2 Ki
Labelling: Ki reported below 4 nM becomes 1; at or above becomes -1.

COc1ccc(CN2CC[C@@H](Nc3cccc4cnccc34)C2)cc1 [Compound 2.047] :: -1
CS(=O)(=O)Nc1cccc(CN2CCC[C@@H](Nc3ccc4[nH]ncc4c3)C2)c1 [Compound 1.093] :: -1
COc1c(CN2CC[C@@H](Nc3cccc4cnccc34)C2)cccc1NS(C)(=O)=O [Compound 2.096] :: -1
OCCn1ccc2cc(CN3CC[C@@H](Nc4cccc5cnccc45)C3)ccc21 [Compound 2.066] :: 1
Cc1ccc(CN2CC[C@@H](Nc3cccc4cnccc34)C2)cc1NS(C)(=O)=O [Compound 2.076] :: 1

Query: For C#Cc1cccc(CN2CCC[C@H](Nc3ccc4[nH]ncc4c3)C2)c1 [Compound 1.153] , is the recorded Ki below the cut-off of 4 nM?
Result: -1

Query: For Cc1cccc(CN2CCC[C@H](Nc3ccc4[nH]ncc4c3)C2)c1C [Compound 1.156] , is the recorded Ki below the cut-off of 4 nM?
Result: -1

Query: Determine if Cc1ccc(CN2CCC[C@H](Nc3ccc4[nH]ncc4c3)C2)cc1OCCO [Compound 1.152] shows Ki strictly lower than 4 nM.
Result: 1

* * *

- Test system: A-10 rat thoracic aorta cells
- TEST_DESCRIPTION: PDGF-stimulated smooth muscle cell proliferation assay (BrdU incorporation);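 further: cells kept in serum-free medium, BrdU allowed to incorporate for 24 h, then incorporated label detected fluorometrically with an anti-BrdU antibody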
- Type: cell-based
- ASSAY_SETUP: A-10 cells, 10 μM test compound, 10 ng/mL PDGF, BrdU incorporation; percent of total challenge-stimulated proliferation
MEASURED_ATTRIBUTE: Percent of PDGF Induced Proliferation at 10 μM Avg (%)
# value in %; strip the unit string

Study these solved cases before continuing.
Cc1ccc(CN2CC[C@@H](Nc3cccc4cnccc34)C2)cc1 :: 68.0
NS(=O)(=O)c1cccc(CN2CCC[C@H](Nc3ccc4[nH]ncc4c3)C2)c1 :: 54.0
Cc1ccc(CN2CCC[C@H](Nc3ccc4[nH]ncc4c3)C2)cc1O :: 63.8
NC(=O)Cn1ccc2cc(CN3CC[C@@H](Nc4cccc5cnccc45)C3)ccc21 :: 25.5
CCS(=O)(=O)Nc1cccc(CN2CC[C@@H](Nc3cccc4cnccc34)C2)c1 :: 61.5

Query: Suppose we examine the compound CS(=O)(=O)Nc1cccc(CN2CC[C@@H](Nc3cccc4cnccc34)C2)c1 ; what Percent of PDGF Induced Proliferation at 10 μM Avg value has been reported?
Result: 62.7

Query: Need Percent of PDGF Induced Proliferation at 10 μM Avg, item C#Cc1ccc(CN2CCC[C@@H](Nc3ccc4[nH]ncc4c3)C2)cc1
Result: 53.7

Query: Need Percent of PDGF Induced Proliferation at 10 μM Avg, item C#Cc1ccc(CN2CC[C@@H](Nc3cccc4cnccc34)C2)cc1
Result: 52.6

Query: Which Percent of PDGF Induced Proliferation at 10 μM Avg is listed for CS(=O)(=O)Nc1cc(CN2CCC[C@H](Nc3ccc4[nH]ncc4c3)C2)ccc1Cl ?
Result: 52.3

Query: Sample CCS(=O)(=O)Nc1cc(CN2CC[C@@H](Nc3cccc4cnccc34)C2)ccc1C — what was its Percent of PDGF Induced Proliferation at 10 μM Avg?
Result: 84.6

Query: Suppose we examine the compound c1cc(C2CC2)ccc1CN1CCC[C@@H](Nc2ccc3[nH]ncc3c2)C1 ; what Percent of PDGF Induced Proliferation at 10 μM Avg value has been reported?
Result: 51.1

* * *

Listed here: items and their measured Ki.
- TEST_SYSTEM: ROCK1 (Homo sapiens)
- Construct: purchased Upstate/Chemicon 14-601
- TEST_DESCRIPTION: Rho kinase inhibition assay (IMAP fluorescence polarization), ROCK1;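 further: kinase reaction run 60 min at room temperature, then phosphorylated substrate captured on IMAP beads for 30 min, with fluorescence polarization read in mP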
- Type: biochemical
- ASSAY_SETUP: Avg, 10 μM ATP
Field: numeric (nM). Do not append units.

O=C(COc1cccc(CN2CCC[C@@H](Nc3ccc4[nH]ncc4c3)C2)c1)Nc1cccnc1 :: 76.2
OCCn1ccc2cc(CN3CCC[C@@H](Nc4ccc5[nH]ncc5c4)C3)ccc21 :: 404
Clc1ccc(CN2CC[C@@H](Nc3ccc4[nH]ncc4c3)C2)cc1Cl :: 116
c1cc(N[C@@H]2CCN(Cc3ccc4[nH]ccc4c3)C2)c2ccncc2c1 :: 4.1
Cc1ccc(CN2CC[C@@H](Nc3ccc4[nH]ncc4c3)C2)cc1OCCO :: 64.2

Query: Return reported Ki; argument: O=[N+]([O-])c1cc(CN2CC[C@@H](Nc3cccc4cnccc34)C2)cs1
Result: 102

Query: Fill in: Ki of CC(=O)NCCOc1cccc(CN2CCC[C@@H](Nc3ccc4[nH]ncc4c3)C2)c1 is ___
Result: 395

Query: I would be grateful if you could share the reported Ki for Clc1ccc(CN2CCC[C@H](Nc3ccc4[nH]ncc4c3)C2)cc1 .
Result: 28.5
